Details: 308.15 K; 101.3 kPa; Liquid; Pycnometric method
Decision: mass density >= 1000 kg/m3 yields 1.0, all other cases yield 0.0.

- CCN(CC)CC [triethylamine]: 0.0
- CCCCN(CCCC)CCCC [tributylamine]: 0.0
- CCCCCC [hexane]: 0.0
- OCCO [1,2-ethanediol]: 1.0

----------
Conditions: 298.15 K; 101.3 kPa; Liquid; Pycnometric method
// values below are reported mass density
READOUT_KIND: mass density (kg/m3)

• CCN(CC)CC = 723.1
• CCCCN(CCCC)CCCC = 774.4
• CCCCCC = 654.8
• OCCO = 1111.3
• C1COCCO1 = 1027.6

----------
Each record here notes measured refractive index.
Test: refractive index (Na D-line) (dimensionless)
Conditions: 298.15 K; 101.33 kPa; Liquid; Standard Abbe refractometry
READOUT_KIND: refractive index

• CCCCCC [hexane] = 1.3728
• CCN(CC)CC [triethylamine] = 1.3983
• CCCCN(CCCC)CCCC [tributylamine] = 1.4274
• C1COCCO1 [1,4-dioxane] = 1.4201
• OCCO [1,2-ethanediol] = 1.4307

----------
Details: 303.15 K; 101.3 kPa; Liquid; Capillary tube (Ostwald / Ubbelohde) method
Parameter viscosity: see the listing below.
READOUT_KIND: viscosity (mPa·s)

- OCCO [1,2-ethanediol]: 9.618
- CCCCCC [hexane]: 0.299
- CCCCN(CCCC)CCCC [tributylamine]: 1.221
- C1COCCO1 [1,4-dioxane]: 1.069
- CCN(CC)CC [triethylamine]: 0.347

----------
Experiment: refractive index (Na D-line) (dimensionless)
Conditions: 308.15 K; 101.33 kPa; Liquid; Standard Abbe refractometry
READOUT_KIND: refractive index

• OCCO [1,2-ethanediol] = 1.4246
• CCN(CC)CC [triethylamine] = 1.3926
• CCCCCC [hexane] = 1.367
• CCCCN(CCCC)CCCC [tributylamine] = 1.4226
• C1COCCO1 [1,4-dioxane] = 1.4143

----------
Conditions: 298.15 K; 101.3 kPa; Liquid; Capillary tube (Ostwald / Ubbelohde) method
Label rule, in plain words: viscosity of 1 mPa·s and up is yes, under 1 mPa·s is no.

• CCCCN(CCCC)CCCC [tributylamine] = yes
• OCCO [1,2-ethanediol] = yes
• C1COCCO1 [1,4-dioxane] = yes
• CCN(CC)CC [triethylamine] = no
• CCCCCC [hexane] = no

----------
Settings: 298.15 K; 101.3 kPa; Liquid; Linear variable-path acoustic interferometer
READOUT_KIND: speed of sound (m/s)

* CCCCCC | 1083
* OCCO | 1659
* CCCCN(CCCC)CCCC | 1261
* CCN(CC)CC | 1127

----------
Details: 308.15 K; 101.3 kPa; Liquid; Capillary tube (Ostwald / Ubbelohde) method
Recorded measurements of viscosity, one per entry
READOUT_KIND: viscosity (mPa·s)

• CCCCCC = 0.286
• CCCCN(CCCC)CCCC = 1.125
• CCN(CC)CC = 0.33
• C1COCCO1 = 0.984
• OCCO = 7.539

----------
Experiment: refractive index (Na D-line) (dimensionless)
Conditions: 303.15 K; 101.33 kPa; Liquid; Standard Abbe refractometry
Numbers after ± are expanded uncertainties.
READOUT_KIND: refractive index

* CCCCCC | 1.3698 ± 0.0011
* OCCO | 1.4269 ± 0.0011
* CCCCN(CCCC)CCCC | 1.4251 ± 0.0011
* CCN(CC)CC | 1.3955 ± 0.001
* C1COCCO1 | 1.417 ± 0.0011
